System: Hela cells
Assay: fluid phase endocytosis assay (BODIPY-FL dextran internalization)
Format: cell-based
Settings: BODIPY-FL dextran 20 min at 37° C., FIG. 3b
Description: For the fluid phase endocytosis assay, Hela cells in 96 well plates were washed and incubated for 120 min with the compounds in serum free buffered medium under tissue culture conditions. […] Fluid phase endocytosis was measured using custom written scripts in Metamorph. Cells were identified in the 633 nm excitation SYTO60 image, the nuclei segmented and cells counted. […] A fluid phase endocytosis assay measured the internalization of green fluorescent 40 kDa BODIPY-FI dextran. […]
observable: number of endosomes relative to the control

>>> result("CC(C)(C)c1cc(/C=C(\\C#N)C(N)=S)cc(C(C)(C)C)c1O [AG-879]")
"reduced"
>>> result("CN(C)CCCn1cc(C2=C(c3c[nH]c4ccccc34)C(=O)NC2=O)c2ccccc21 [GF 109203X]")
"reduced"
>>> result("CN[C@@H]1C[C@H]2O[C@@](C)([C@@H]1OC)n1c3ccccc3c3c4c(c5c6ccccc6n2c5c31)C(=O)NC4 [staurosporine]")
"reduced"
>>> result("CC(C)(C)c1cc(C=C(C#N)C#N)cc(C(C)(C)C)c1O [tyrphostin 9]")
"reduced"
